Data provenance: patent US11547697B2

Biological target: p110β/p85α (Homo sapiens (Human))
Sequence (P42338 whole entry): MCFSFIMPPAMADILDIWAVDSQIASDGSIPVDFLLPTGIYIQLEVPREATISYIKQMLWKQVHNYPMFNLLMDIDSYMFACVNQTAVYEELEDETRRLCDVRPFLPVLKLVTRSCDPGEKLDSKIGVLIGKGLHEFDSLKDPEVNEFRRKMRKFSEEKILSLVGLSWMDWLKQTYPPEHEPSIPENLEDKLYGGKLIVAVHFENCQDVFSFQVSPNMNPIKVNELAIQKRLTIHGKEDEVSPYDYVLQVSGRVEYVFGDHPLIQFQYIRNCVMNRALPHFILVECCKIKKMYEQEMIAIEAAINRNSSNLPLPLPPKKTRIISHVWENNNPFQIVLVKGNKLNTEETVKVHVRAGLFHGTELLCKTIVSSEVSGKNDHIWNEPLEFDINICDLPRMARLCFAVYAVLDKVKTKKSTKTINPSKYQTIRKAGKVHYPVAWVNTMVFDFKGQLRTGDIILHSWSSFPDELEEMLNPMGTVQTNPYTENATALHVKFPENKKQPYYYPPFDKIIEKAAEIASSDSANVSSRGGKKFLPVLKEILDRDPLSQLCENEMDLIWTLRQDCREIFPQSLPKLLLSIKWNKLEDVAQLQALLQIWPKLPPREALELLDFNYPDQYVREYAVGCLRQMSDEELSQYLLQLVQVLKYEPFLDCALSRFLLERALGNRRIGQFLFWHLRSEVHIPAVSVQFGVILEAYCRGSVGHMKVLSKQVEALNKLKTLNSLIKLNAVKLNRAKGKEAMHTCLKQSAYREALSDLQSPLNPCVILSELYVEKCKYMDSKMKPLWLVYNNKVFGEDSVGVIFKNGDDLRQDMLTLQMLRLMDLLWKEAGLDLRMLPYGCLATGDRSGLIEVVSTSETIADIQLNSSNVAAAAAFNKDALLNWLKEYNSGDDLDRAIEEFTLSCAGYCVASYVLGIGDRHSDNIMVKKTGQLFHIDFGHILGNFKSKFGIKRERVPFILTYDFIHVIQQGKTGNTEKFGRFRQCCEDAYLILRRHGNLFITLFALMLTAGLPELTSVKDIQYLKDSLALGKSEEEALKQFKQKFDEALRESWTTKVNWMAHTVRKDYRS
Sequence (P27986 whole entry partner): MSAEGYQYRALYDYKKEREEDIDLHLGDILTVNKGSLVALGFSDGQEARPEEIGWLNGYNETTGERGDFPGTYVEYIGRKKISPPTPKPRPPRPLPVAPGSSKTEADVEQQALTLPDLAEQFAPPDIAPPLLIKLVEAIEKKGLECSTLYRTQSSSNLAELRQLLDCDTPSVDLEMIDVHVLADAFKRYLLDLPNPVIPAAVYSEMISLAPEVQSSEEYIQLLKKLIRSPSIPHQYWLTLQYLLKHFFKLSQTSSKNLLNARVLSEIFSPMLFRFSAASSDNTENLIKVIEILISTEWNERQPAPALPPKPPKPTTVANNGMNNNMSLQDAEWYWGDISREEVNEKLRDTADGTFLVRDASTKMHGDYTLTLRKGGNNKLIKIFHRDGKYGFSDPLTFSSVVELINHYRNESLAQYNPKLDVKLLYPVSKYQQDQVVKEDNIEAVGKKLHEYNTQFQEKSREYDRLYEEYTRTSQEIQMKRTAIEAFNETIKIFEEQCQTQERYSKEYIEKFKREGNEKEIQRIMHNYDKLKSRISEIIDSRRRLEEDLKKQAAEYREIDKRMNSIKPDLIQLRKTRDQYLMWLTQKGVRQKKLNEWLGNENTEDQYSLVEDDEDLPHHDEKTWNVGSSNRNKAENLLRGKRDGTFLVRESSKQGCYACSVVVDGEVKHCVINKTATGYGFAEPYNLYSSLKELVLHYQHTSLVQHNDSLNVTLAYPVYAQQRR
Assay: PI 3-Kinase (human) HTRF assay, p110β/p85α
Format: biochemical
Conditions: in vitro; read-out: PI3K β IC50
pIC50: −log10 of the molar value.
Value Kind: pIC50

INSERT INTO results (molecule, measurement_target, value_kind, observed_value) VALUES
  ('Cc1cc(-c2ccc3ncc(N4CC(N5CCOCC5)C4)nc3c2)cc2nc(N)oc12', 'p110β/p85α (Homo sapiens (Human))', 'pIC50', '> 5.00'),
  ('Nc1nc2cc(-c3ccc4ncc(C(=O)N(CCO)CCO)n4c3)ccc2o1', 'p110β/p85α (Homo sapiens (Human))', 'pIC50', '> 5.00'),
  ('Nc1nc2cc(-c3ccc4ncc(N5CC(n6ccnc6)C5)nc4c3)ccc2o1', 'p110β/p85α (Homo sapiens (Human))', 'pIC50', '> 6.00'),
  ('Nc1nc2cc(-c3ccc4ncc(NCCN5CCCC5)nc4c3)ccc2o1', 'p110β/p85α (Homo sapiens (Human))', 'pIC50', '> 6.00'),
  ('Nc1nc2cc(-c3ccc4nnc(-c5ccncc5)n4c3)ccc2o1', 'p110β/p85α (Homo sapiens (Human))', 'pIC50', '> 6.00'),
  ('Cc1nccn1C1CN(c2cnc3ccc(-c4ccc5oc(N)nc5c4)cc3n2)C1', 'p110β/p85α (Homo sapiens (Human))', 'pIC50', '> 5.00'),
  ('Nc1nc2cc(-c3ccc4ncc(N5CCN(C6CC6)CC5)nc4c3)ccc2o1', 'p110β/p85α (Homo sapiens (Human))', 'pIC50', '> 6.00'),
  ('Nc1nc2cc(-c3ccc4ncc(N5CC(N6CCN(C7CC7)CC6)C5)nc4c3)ccc2o1', 'p110β/p85α (Homo sapiens (Human))', 'pIC50', '> 5.00'),
  ('CN1CCN(C2CN(c3cnc4ccc(-c5ccc6oc(N)nc6c5)cc4n3)C2)CC1=O', 'p110β/p85α (Homo sapiens (Human))', 'pIC50', '> 5.00'),
  ('C[C@H]1CN(C(=O)C2CN(c3cnc4ccc(-c5ccc6oc(N)nc6c5)cc4n3)C2)CCN1', 'p110β/p85α (Homo sapiens (Human))', 'pIC50', '> 5.00'),
  ('CC1CN(C(=O)c2cnc3ccc(-c4ccc5oc(N)nc5c4)cn23)CCO1 (stereo not shown)', 'p110β/p85α (Homo sapiens (Human))', 'pIC50', '> 5.00'),
  ('Nc1nc2cc(-c3ccc4ncc(N5CCNC(C(F)(F)F)C5)nc4c3)ccc2o1 (stereo not shown)', 'p110β/p85α (Homo sapiens (Human))', 'pIC50', '> 6.00'),
  ('Nc1nc2cc(-c3ccc4ncc(N5CCC(O)C5)nc4c3)ccc2o1 (stereo not shown)', 'p110β/p85α (Homo sapiens (Human))', 'pIC50', '> 6.00');

----------
Biological target: p110α/p85α (Homo sapiens (Human), UniProt P42336)
Sequence (P42336 whole entry): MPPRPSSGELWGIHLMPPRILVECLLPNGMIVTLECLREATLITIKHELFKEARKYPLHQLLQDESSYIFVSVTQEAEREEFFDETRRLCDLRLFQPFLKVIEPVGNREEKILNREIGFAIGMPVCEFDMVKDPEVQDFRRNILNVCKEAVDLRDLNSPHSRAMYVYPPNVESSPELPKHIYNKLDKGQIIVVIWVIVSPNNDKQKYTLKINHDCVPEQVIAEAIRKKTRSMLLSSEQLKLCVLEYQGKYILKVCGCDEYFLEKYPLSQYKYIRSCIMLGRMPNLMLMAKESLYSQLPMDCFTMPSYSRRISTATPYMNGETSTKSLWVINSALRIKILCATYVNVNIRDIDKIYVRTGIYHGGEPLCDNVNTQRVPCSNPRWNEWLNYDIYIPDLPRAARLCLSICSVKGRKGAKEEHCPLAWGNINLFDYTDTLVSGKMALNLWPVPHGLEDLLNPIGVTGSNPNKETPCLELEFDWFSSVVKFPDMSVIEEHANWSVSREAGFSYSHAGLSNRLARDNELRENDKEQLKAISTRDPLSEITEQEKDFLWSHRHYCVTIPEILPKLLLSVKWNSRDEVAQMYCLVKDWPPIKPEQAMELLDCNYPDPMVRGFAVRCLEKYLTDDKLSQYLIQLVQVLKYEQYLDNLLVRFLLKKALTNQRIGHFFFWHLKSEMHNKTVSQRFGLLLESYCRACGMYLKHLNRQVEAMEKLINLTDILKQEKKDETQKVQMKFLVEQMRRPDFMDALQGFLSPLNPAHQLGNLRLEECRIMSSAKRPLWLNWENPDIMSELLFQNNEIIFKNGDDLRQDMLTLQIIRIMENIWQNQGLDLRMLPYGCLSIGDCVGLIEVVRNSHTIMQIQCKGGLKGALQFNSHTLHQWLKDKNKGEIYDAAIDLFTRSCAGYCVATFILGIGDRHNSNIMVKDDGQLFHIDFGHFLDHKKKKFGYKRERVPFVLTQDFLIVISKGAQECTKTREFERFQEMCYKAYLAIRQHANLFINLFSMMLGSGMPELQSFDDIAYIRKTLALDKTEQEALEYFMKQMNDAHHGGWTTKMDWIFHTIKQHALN
Sequence (P27986 whole entry partner): as the sequence (P27986 whole entry partner) above
Test: PI 3-Kinase (human) HTRF assay, p110α/p85α
Format: biochemical
Conditions: in vitro; read-out: PI3K α IC50
pIC50: −log10 of the molar value.
Value Kind: pIC50

INSERT INTO measurements (compound_smiles, measurement_target, observed_value) VALUES
  ('Nc1nc2cc(-c3ccc4ncc(N5CCN(C(=O)[C@@H](N)CO)CC5)nc4c3)ccc2o1', 'p110α/p85α (Homo sapiens (Human), UniProt P42336)', '> 7.00'),
  ('Nc1nc2cc(-c3ccc4ncc(C(=O)N5CCC5)n4c3)ccc2o1', 'p110α/p85α (Homo sapiens (Human), UniProt P42336)', '> 7.00'),
  ('Nc1nc2cc(-c3ccc4nc(N)oc4c3)ccc2o1', 'p110α/p85α (Homo sapiens (Human), UniProt P42336)', '> 6.00');
